Source of measurements: patent US8519149B2

Entries annotated with measured inhibition at 10 µM
- System Under Test: Recombinant human mPGES-1 (Homo sapiens, UniProt O14684)
- Sequence (O14684 whole entry): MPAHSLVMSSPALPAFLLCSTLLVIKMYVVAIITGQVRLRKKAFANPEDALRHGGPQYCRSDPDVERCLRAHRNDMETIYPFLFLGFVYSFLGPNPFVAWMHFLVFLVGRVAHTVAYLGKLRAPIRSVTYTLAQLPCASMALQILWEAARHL
- Assay Protocol: In-vitro mPGES-1 enzyme inhibition assay (PGE2 formation from PGH2, HTRF detection)
- Assay type: biochemical
- Measurement Parameters: 10 μM test compound; recombinant human mPGES-1 microsomal fraction; read-out: Percentage inhibition at 10 μM
The reply should be a number in %, with the unit left off.

Answered examples (3):
mol=Cc1cc2c(o1)c(C(=O)NCc1ccc(F)cc1)cc1nc(Nc3c(F)cccc3Cl)[nH]c12 data_value=96.7
mol=CC1(C)Cc2c(c(C(=O)NCCc3ccc(Cl)cc3)cc3nc(Nc4c(Cl)cccc4Cl)[nH]c23)O1 data_value=89.3
mol=CC1(C)Cc2c(c(C(=O)Nc3ncc(Cl)cc3F)cc3nc(Nc4c(Cl)cccc4Cl)[nH]c23)O1 data_value=100

Field request: inhibition at 10 µM | item: CC1(C)Cc2c(c(C(=O)Nc3cccc(C(F)(F)F)c3F)cc3nc(Nc4c(F)cccc4Cl)[nH]c23)O1
97.7

Look at this molecule and give its reported inhibition at 10 µM. Cn1c(Nc2c(F)cccc2Cl)nc2cc(C(=O)Nc3ccc(C(F)(F)F)c[n+]3[O-])c3c(c21)CC(C)(C)O3
99.8

Can you look up the measured inhibition at 10 µM of CC1(C)Cc2c(c(C(=O)Nc3ccc(C(F)(F)F)nc3)cc3nc(Nc4c(F)cccc4Cl)[nH]c23)O1 for me?
96.3

// query inhibition at 10 µM value for entry Cn1c(Nc2c(Cl)cncc2Cl)nc2cc(C(=O)Nc3cc(C(F)(F)F)ccc3F)c3c(c21)CC(C)(C)O3
100
